The origin of these recorded values is PubChem BioAssay AID1159580.

# PROCEDURE DETAILS: chemical genetic growth profiling, strain panel (AID 1159580);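 further: tested at 20 µM; growth read once vehicle control cultures reached saturation at 30 °C; 1 = growth at the plate median or of vehicle wells; lower values mean less growth of the strain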
# TEST SETTINGS: S. cerevisiae deletion strains, growth OD, locus YNL298W, strain CLA4, active compounds read low
In all, about 5,500 compounds went through this assay and about 2,000 (36%) were called active. Not shown: some 18% with an inconclusive outcome. This is one part of the list.
REPORTED METRIC: normalized growth
When you answer, write just the number.

## Input Look up normalized growth for this compound: CN1CC(CO)=C[C@@H]2c3cccc4[nH]cc(c34)C[C@H]21
## Output 1.01

## Input Now this one: COc1ccc(C(=O)CC(=O)O)c2c1C=CC(C)(C)O2
## Output 0.979

## Input Follow-up item: C[C@]12CCC(=O)C=C1C=CC1C2CC[C@@]2(C)C1CC[C@@]21CCC(=O)O1 (stereo partly drawn)
## Output 0.955

## Input Same read-out for Clc1ccc(C(OCCN2CCCCC2)c2ccccc2)cc1 (stereo not drawn) ?
## Output 1

## Input And what about the compound Cc1[nH]c2ccccc2c1CN(C)C ?
## Output 0.985

---
## Input I would be grateful if you could share the reported normalized growth for CNC(=O)O/N=C(\C)SC .
## Output 0.988

## Input And the next one, COc1cc2c(cc1OC)C(=O)c1ccc(OC)c(OC)c1OCC(=O)C2 ?
## Output 1

## Input Moving on to Cc1ccccc1C(OCCN(C)C)c1ccccc1 (stereo not drawn)
## Output 1.03

###

# PROCEDURE DETAILS: chemical genetic growth profiling, strain panel (AID 1159580)
# TEST SETTINGS: S. cerevisiae deletion strains, growth OD, locus YEL061C, strain CIN8, active compounds read low
About 2,000 (36%) of roughly 5,500 compounds were called active. Not shown: some 18% with an inconclusive outcome. The list shows a part of the results.
REPORTED METRIC: normalized growth
# answer = number (no unit)

Here's what some known entries look like.
## Input Need normalized growth, item CN1CCC(OC(c2ccccc2)c2ccccc2)CC1
## Output 0.995

## Input Now this one: C#CCN(C)Cc1ccccc1
## Output 0.99

More entries:
## Input What value of normalized growth has been recorded for this entry: CCN1CCCC(OC(=O)C(c2ccccc2)c2ccccc2)C1 (configuration not stated)
## Output 1.01

## Input What do you have for COc1ccc2c(c1)OC/C(=C\c1ccc(OC)c(O)c1)C2=O ?
## Output 0.623

## Input What about O=C1NCC2(CCN(CCc3ccccc3)CC2)O1 ?
## Output 1

## Input What about this compound? CN1CC(CO)=C[C@@H]2c3cccc4[nH]cc(c34)C[C@H]21
## Output 0.995

## Input Next compound: COc1ccc(/C=C2\CC/C(=C\c3ccc(OC)c(OC)c3)C2=O)cc1OC
## Output 0.986

## Input Another compound to look at: C[C@@H]1CC(Cl)CC[C@H]1C(=O)OC(C)(C)C (some centres not stated)
## Output 0.989

## Input And for Cc1onc(-c2c(Cl)cccc2Cl)c1-c1nc(-c2ccc3c(c2)OCCO3)cs1 ?
## Output 1.02

## Input Then CNC(=O)O/N=C(\C)SC ?
## Output 1.01

## Input Continue with COc1c(Br)cc([N+](=O)[O-])c(OC)c1C(N)=O
## Output 1.02

## Input Entry to check: O=c1cccc2ccc(O)c(O)c2c1O
## Output 0.301

###

# PROCEDURE DETAILS: chemical genetic growth profiling, strain panel (AID 1159580);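 further: tested at 20 µM; growth read once vehicle control cultures reached saturation at 30 °C; 1 = growth at the plate median or of vehicle wells; lower values mean less growth of the strain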
# TEST SETTINGS: S. cerevisiae deletion strains, growth OD, locus YHR200W, strain rpn10
About 2,000 (36%) of roughly 5,500 compounds were called active. About 18% were inconclusive and are not listed. Cut-off read from the data, not from the text of the source: active = normalized growth mostly below about 0.91 (no sharp cut-off); inconclusive = no clear call, values can overlap the other calls; inactive = mostly above about 0.92. The list shows a part of the results.
Answer with one of the outcomes given here: Yes for active, No for inactive

Completed entries (count: 2):
## Input // outcome(item) with item = CC[C@H]1OC(=O)[C@H](C)[C@@H](O[C@H]2C[C@@](C)(OC)[C@@H](O)[C@H](C)O2)[C@H](C)[C@@H](O[C@@H]2O[C@H](C)C[C@H](N(C)C)[C@H]2O)[C@](C)(OC)C[C@@H](C)C(=O)[C@H](C)[C@@H](O)[C@]1(C)O
## Output No

## Input Repeat with COC(=O)C[C@H]1C2(C)CC34OC5(C)O[C@@]6([C@H](OC(C)=O)C(OC(C)=O)[C@]7(C)C(/C(=C(/O)C(C)C)C(=O)O[C@H]7c7ccoc7)[C@@]6(O5)[C@H](OC(C)=O)[C@@]3(O)C2OC(=O)C(C)C)[C@]14C (stereo partly drawn)
## Output No

Others:
## Input How was C=C[C@@](C)(O)CCC1C(=C)CCC2[C@@](C)(CO)CCC[C@]12C (stereo partly drawn) classified in this test?
## Output No

## Input And C=C[C@@](C)(O)CCC1C(=C)C[C@H](O)C2C(C)(C)CCCC12C (stereo partly drawn) ?
## Output No

## Input Moving on to Oc1cc(O)c2c(c1)OC(c1cc(O)c(O)c(O)c1)C(O)C2c1c(O)cc(O)c2c1OC(c1cc(O)c(O)c(O)c1)C(O)C2c1c(O)cc(O)c2c1OC(c1cc(O)c(O)c(O)c1)C(O)C2 (stereo not drawn)
## Output No

## Input And for CCN1CCCC(OC(=O)C(c2ccccc2)c2ccccc2)C1 (stereo not drawn) ?
## Output No

###

# PROCEDURE DETAILS: chemical genetic growth profiling, strain panel (AID 1159580);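 further: tested at 20 µM; growth read once vehicle control cultures reached saturation at 30 °C; 1 = growth at the plate median or of vehicle wells; lower values mean less growth of the strain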
# TEST SETTINGS: S. cerevisiae deletion strains, growth OD, locus YNL250W, strain rad50, active compounds read low
The whole screen tested about 5,500 compounds, of which about 2,000 (36%) were called active. Inconclusive results (about 18%) are left out. Some of the results follow.
A collection of compounds and their measured normalized growth
Just the number, please, no unit attached.

Field: example entries. Status: answers known.
## Input Any idea what its normalized growth is? The compound is CCC(C)C(=O)OC1CC2(C)C(c3ccoc3)OC(=O)CC23OC2(C)OC34C(OC(=O)C(C)C)C3(O)C(OC(=O)C5(C)OC5C)C5(C)CC3(O)C(C)(C5C(=O)OC)C14O2 (configuration not stated)
## Output 1.02

## Input // same read-out, input: CC1(C)S[C@@H]2[C@H](NC(=O)[C@H](N)c3ccccc3)C(=O)N2[C@H]1C(=O)O
## Output 0.998

## Input Record: COC(=O)CC1C2(C)CC34OC5(C)OC6(C7/C(=C(/O)C(C)C)C(=O)OC(c8ccoc8)C7(C)C(OC(=O)C(C)C)C(OC)C6(O5)C13C)C(OC)C4(OC)C2OC(C)=O (configuration not stated)
## Output 1.02

## Input Same lookup for C=CCc1ccc(O)c(OC)c1 , please.
## Output 0.924

## Input Subsequent entry: CNCCC(Oc1ccc(C(F)(F)F)cc1)c1ccccc1 (configuration not stated)
## Output 0.996

Next:
## Input What value of normalized growth has been reported for the following compound? CCC(C)C(=O)O[C@@H]1C[C@@]2(C)[C@H](c3ccoc3)OC(=O)CC23OC2(C)OC34[C@H](OC(=O)C(C)C)[C@@]3(O)[C@@H](OC(=O)C5(C)OC5C)[C@@]5(C)C[C@]3(O)[C@@](C)([C@H]5CC(=O)OC)C14O2 (some centres not stated)
## Output 1.05

## Input Now consider COc1ccc(C(=O)O)cc1OC and answer again.
## Output 0.952

###

# PROCEDURE DETAILS: chemical genetic growth profiling, strain panel (AID 1159580);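 further: tested at 20 µM; growth read once vehicle control cultures reached saturation at 30 °C; 1 = growth at the plate median or of vehicle wells; lower values mean less growth of the strain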
# TEST SETTINGS: S. cerevisiae deletion strains, growth OD, locus YDL185W, strain tfp1, active compounds read low
The campaign covered roughly 5,500 compounds. About 2,000 (36%) were called active. Inconclusive results (about 18%) are left out. This is one part of the list.
Checkbox rule: normalized growth lower than 1 = TRUE; normalized growth not lower than 1 = FALSE.

## Input Below 1 on normalized growth? Entry CCC(C)C(=O)OC1CC2(C)C(c3ccoc3)OC(=O)CC23OC2(C)OC34C(OC(=O)C(C)C)C3(O)C(OC(=O)C5(C)OC5C)C5(C)CC3(O)C(C)(C5C(=O)OC)C14O2 (stereo unspecified)
## Output FALSE

## Input Ok, now CC1COc2c(N3CCN(C)CC3)c(F)cc3c(=O)c(C(=O)O)cn1c23 (stereo unspecified)
## Output FALSE

Now turn to the next compound.
## Input API: query returns whether the compound falls strictly under 1 in normalized growth. Query: COC(=O)C[C@H]1C2(C)CC34OC5(C)O[C@@]6([C@H](OC(C)=O)C(OC(C)=O)[C@]7(C)C(/C(=C(/O)C(C)C)C(=O)O[C@H]7c7ccoc7)[C@@]6(O5)[C@H](OC(C)=O)[C@@]3(O)C2OC(=O)C(C)C)[C@]14C (stereo partly specified)
## Output TRUE
